Below, each entry is listed alongside its reported log2 fold change of degron read counts.
Biological target: T1, CRBN, Q96SW2;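 further: pooled lentiviral library of zinc finger degron-EGFP fusions in mCherry-positive Jurkat cells, FACS-sorted after compound exposure, with degron abundance counted by next-generation sequencing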
T1 chain: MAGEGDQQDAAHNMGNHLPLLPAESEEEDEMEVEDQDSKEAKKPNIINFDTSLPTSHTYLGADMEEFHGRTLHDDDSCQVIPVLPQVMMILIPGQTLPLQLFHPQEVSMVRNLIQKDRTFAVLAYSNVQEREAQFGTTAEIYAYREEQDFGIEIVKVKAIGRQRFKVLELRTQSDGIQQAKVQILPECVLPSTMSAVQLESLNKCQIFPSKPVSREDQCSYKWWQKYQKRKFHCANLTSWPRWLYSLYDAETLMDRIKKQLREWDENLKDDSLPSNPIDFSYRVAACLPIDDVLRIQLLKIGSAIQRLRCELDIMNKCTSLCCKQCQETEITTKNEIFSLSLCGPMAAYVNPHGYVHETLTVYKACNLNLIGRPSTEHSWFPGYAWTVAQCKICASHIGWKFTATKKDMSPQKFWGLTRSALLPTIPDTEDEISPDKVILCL
Experiment: log2 fold change of degron read counts, EGFP-low vs EGFP+ sorted cells (limma voom), compound-induced degradation; higher = more compound-induced degradation of the degron-EGFP fusion; degrons are variants of IKZF1/3 zinc finger 2; compound dose not given here
Conditions: Jurkat; 18 h; compound: compound 22 (5-morpholino-thalidomide)
In all, about 8,300 sequences were measured (“log2 fold change of degron read counts, EGFP-low vs EGFP+ sorted cells (limma voom), compound-induced degradation”: median about -1.1, highest 2% from about 3.2 on). The sample holds the highest values, similar sequences and a random draw of the others, so the mix is not that of the screen.
Please give only the number in your answer, with no unit.

In the examples that follow, each entry is paired with its recorded log2 fold change of degron read counts.
FECNICGALFTQKGNLLRHIKL [46F_47E_49N_50I_52G_53A_54L_55F_67L_, Q9UKT9] : -2.25
FLCDVCGACFTQKGNLLRHIKL [46F_47L_49D_50V_52G_53A_54C_55F_67L_, Q9UKT9] : -2.05
FKCSVCGHVFTQKGNLLRHIKL [46F_47K_49S_50V_52G_53H_54V_55F_67L_, Q9UKT9] : -3.01

stdin: log2 fold change of degron read counts for FQCNVCGAYFTQKGNLLRHIKL [46F_47Q_49N_50V_52G_53A_54Y_55F_67L_, Q9UKT9] ?
stdout: -1.8
